Target: T1, Chymase, from human skin (human, UniProt P23946 22-247)
T1 sequence (looked up): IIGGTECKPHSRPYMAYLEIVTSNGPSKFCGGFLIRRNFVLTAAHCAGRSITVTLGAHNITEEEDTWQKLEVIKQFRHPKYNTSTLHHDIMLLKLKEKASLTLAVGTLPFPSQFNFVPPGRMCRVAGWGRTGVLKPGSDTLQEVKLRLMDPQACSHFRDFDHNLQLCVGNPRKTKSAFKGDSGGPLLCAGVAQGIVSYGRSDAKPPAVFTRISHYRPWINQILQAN
Assay: cell-based or functional assay
assay_metric: % inhibition at 100 µM (%)
Report only the number, with the unit % understood.

Quick one: % inhibition at 100 µM of ICTKSDPPQCR (HELM PEPTIDE1{I.C.T.K.S.D.P.P.Q.C.R.[dP].P}$PEPTIDE1,PEPTIDE1,2:R3-10:R3|PEPTIDE1,PEPTIDE1,1:R1-13:R2$$$V2.0; SMILES CC[C@H](C)[C@@H]1NC(=O)[C@@H]2CCCN2C(=O)[C@H]2CCCN2C(=O)[C@H](CCCNC(=N)N)NC(=O)[C@@H]2CSSC[C@H](NC1=O)C(=O)N[C@@H]([C@@H](C)O)C(=O)N[C@@H](CCCCN)C(=O)N[C@@H](CO)C(=O)N[C@@H](CC(=O)O)C(=O)N1CCC[C@H]1C(=O)N1CCC[C@H]1C(=O)N[C@@H](CCC(N)=O)C(=O)N2) [Example 55] ?
27.6
